B1: MNAT1 (parent)
chain: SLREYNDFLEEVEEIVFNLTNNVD

Variants of: B1
assay.summary: protein stability index of a GFP-peptide fusion (GPS, HEK-293T) (PSI 1-6); higher = more stable;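 also: lentivirally expressed fusions sorted by FACS into six bins by GFP to DsRed ratio, PSI derived from sequencing read proportions per bin multiplied by bin number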
stated.conditions: c terminus: a fixed tail appended
Answer f if protein stability index is under 2, and t if it is 2 or more.

Input: Could you tell me if the measured protein stability index of SLRVYNDFLEEVEEIVFNLTNNVD [E4V] reaches 2 or more?
Output: t

Input: Is the recorded value of protein stability index equal to or greater than 2 for this variant? SLREYNDYLEEVEEIVFNLTNNVD [F8Y]
Output: t

Input: Reported protein stability index at or above 2? SLREYNDFLEEVEEIVFNLTNAVD [N22A]
Output: t

Input: Say whether SLREYNDFLEEVEEIVFNLTDNVD [N21D] shows protein stability index of 2 or more.
Output: t

Input: hey, is protein stability index for this one >= 2? SLREYNDFLEEVEEIEFNLTNNVD [V16E]
Output: t

Input: Does the reported protein stability index for SLREYNDFLEEVEEIVFNVTNNVD [L19V] fall at or above the 2 mark?
Output: t

Input: Quick check, protein stability index >= 2? SIREYNDFLEEVEEIVFNLTNNVD [L2I]
Output: t

Input: Is reported protein stability index greater than or equal to 2 here: SLREYCDFLEEVEEIVFNLTNNVD [N6C]
Output: f

Input: Can SLREYNDFLEEVEEIVFNLQNNVD [T20Q] be said to have protein stability index at or above 2?
Output: t

Input: Would you say SLREYNDFLEENEEIVFNLTNNVD [V12N] shows protein stability index at minimum 2?
Output: t

Input: Threshold query (protein stability index >= 2) on SLREYNDFLEEVEEHVFNLTNNVD [I15H]
Output: t

Input: Hi team, for SLREYNDFLEEVEEIVFNLFNNVD [T20F] , is the recorded protein stability index at or above 2?
Output: f

Input: Assess whether reported protein stability index for SLREYNDFLEEVETIVFNLTNNVD [E14T] sits at 2 or higher.
Output: f

Input: Would you say SLREYNDFLEEVEEIVFNLTNSVD [N22S] shows protein stability index at minimum 2?
Output: f

Input: Answer whether protein stability index of SLREYNDFLEEVAEIVFNLTNNVD [E13A] is greater than or equal to 2.
Output: f

Input: Given the entry SLREYNDFLEEVEEIHFNLTNNVD [V16H] , answer whether its protein stability index meets or surpasses 2.
Output: t

Input: Tell me whether protein stability index is at least 2 here: SLREYNDFLEEVERIVFNLTNNVD [E14R]
Output: t

Input: Could you verify whether the entry SLREYNDFLEEVEEIVFNLTNNVR [D24R] shows protein stability index of no less than 2?
Output: f

Input: Decide: protein stability index of SLREYNDFLEEVEEIWFNLTNNVD [V16W] >= 2?
Output: t

Input: Check the entry SLREYNDFLEEVEEIVSNLTNNVD [F17S] : does protein stability index equal or exceed 2?
Output: t

Input: hey, is protein stability index for this one >= 2? SLREYNDFLEEVEEIVDNLTNNVD [F17D]
Output: t

Input: # check: protein stability index of SRREYNDFLEEVEEIVFNLTNNVD [L2R] is greater than or equal to 2
Output: t

Input: Can SLREYNDFLEMVEEIVFNLTNNVD [E11M] be said to have protein stability index at or above 2?
Output: f

Input: API: above_or_equal(metric=protein stability index, cutoff=2) for item SLREYNDFLEELEEIVFNLTNNVD [V12L]
Output: f

Input: Entry SLREYNDFLEKVEEIVFNLTNNVD [E11K] : is its protein stability index no less than 2?
Output: t

Input: Can SLREYNDFLEEVEEVVFNLTNNVD [I15V] be said to have protein stability index at or above 2?
Output: t

Input: Given the entry SLREYNDFLEEVEEIIFNLTNNVD [V16I] , answer whether its protein stability index meets or surpasses 2.
Output: t

Input: Record SLEEYNDFLEEVEEIVFNLTNNVD [R3E] ; criterion: protein stability index no lower than 2. Met?
Output: t

Input: Could you tell me if the measured protein stability index of SKREYNDFLEEVEEIVFNLTNNVD [L2K] reaches 2 or more?
Output: t

Input: Does the reported protein stability index for SLREYNDFLPEVEEIVFNLTNNVD [E10P] fall at or above the 2 mark?
Output: t

Input: Has MLREYNDFLEEVEEIVFNLTNNVD [S1M] a recorded protein stability index greater than or equal to 2?
Output: f

Input: Please check the record SLREYNDFLEEVEEQVFNLTNNVD [I15Q] and state if its protein stability index is at or above 2.
Output: t

Input: I'd appreciate it if you could say whether SLREYNDFLEEVEEIRFNLTNNVD [V16R] has protein stability index at least equal to 2.
Output: t

Input: // inclusive: protein stability index at least 2? input: SLRGYNDFLEEVEEIVFNLTNNVD [E4G]
Output: t

Input: Determine whether this variant has protein stability index no lower than 2: SLREYNDFLEEVNEIVFNLTNNVD [E13N]
Output: t

Input: Item SLREYNFFLEEVEEIVFNLTNNVD [D7F] with protein stability index of 2 or above?
Output: t

Input: Form field: protein stability index at least 2? Entry: SLREYNDFLEEVESIVFNLTNNVD [E14S]
Output: t

Input: Does the variant SLREYNDFLEEVEEIVFNLTNRVD [N22R] have recorded protein stability index that is 2 or more?
Output: t

Input: Form field: protein stability index at least 2? Entry: SLREYNDFLEEVEEIVFNLTPNVD [N21P]
Output: t

Input: Does protein stability index meet or surpass 2 for SNREYNDFLEEVEEIVFNLTNNVD [L2N] ?
Output: t

Input: Given the entry SMREYNDFLEEVEEIVFNLTNNVD [L2M] , answer whether its protein stability index meets or surpasses 2.
Output: t

Input: Determine whether measured protein stability index meets or exceeds 2 for SLREYNDFLEEVEEIVFNLTNCVD [N22C]
Output: f

Input: Identify whether the reported protein stability index of the following variant is 2 or greater: SLREYNDFLEEVEEIVKNLTNNVD [F17K]
Output: t

Input: # check: protein stability index of SLREYNDILEEVEEIVFNLTNNVD [F8I] is greater than or equal to 2
Output: t

Input: # bool: protein stability index of SLREYNDFLEEVEEIVFNLTNLVD [N22L] >= 2
Output: f

Input: Is protein stability index at least 2? Consider SLREYNDFLEEVEEIVFQLTNNVD [N18Q]
Output: f

Input: Decide: is the reported value of protein stability index for SLREYNDFLEQVEEIVFNLTNNVD [E11Q] equal to or greater than 2?
Output: f

Input: // inclusive: protein stability index at least 2? input: SLREYNMFLEEVEEIVFNLTNNVD [D7M]
Output: t

Input: Threshold query (protein stability index >= 2) on SLGEYNDFLEEVEEIVFNLTNNVD [R3G]
Output: t

Input: Is protein stability index for SLREYNDFLEEVEEIVFNKTNNVD [L19K] at or above 2?
Output: t

Input: Decide: is the reported value of protein stability index for SLREYNDFLEEVEEIVFNLCNNVD [T20C] equal to or greater than 2?
Output: t

Input: Is protein stability index at least 2? Consider SGREYNDFLEEVEEIVFNLTNNVD [L2G]
Output: t

Input: Evaluate SLREYNDFLEEKEEIVFNLTNNVD [V12K] : protein stability index at minimum 2?
Output: t

Input: Does the reported protein stability index for STREYNDFLEEVEEIVFNLTNNVD [L2T] fall at or above the 2 mark?
Output: t

Input: Would you say SLREYNDFLEEVEEICFNLTNNVD [V16C] shows protein stability index at minimum 2?
Output: t

Input: Check this variant for protein stability index at or above 2: SLREYNDFLEEVEEIVFNLTNNGD [V23G]
Output: t

Input: Test whether the variant SLREYNDFLEEVMEIVFNLTNNVD [E13M] records protein stability index of 2 or higher.
Output: t

Input: Given SLREYNDFLEEVEEIVFNLTNNVN [D24N] , state whether its protein stability index is at least 2.
Output: f

Input: Can SLREYNDFLEEVEEEVFNLTNNVD [I15E] be said to have protein stability index at or above 2?
Output: t

Input: Given the entry SLREYNDFLEEVEEIVFNLTNNHD [V23H] , answer whether its protein stability index meets or surpasses 2.
Output: t

Input: Say whether SLREYNDFLEEVEEIVFNLTANVD [N21A] shows protein stability index of 2 or more.
Output: f

Input: State whether the measured protein stability index reaches 2, counting equality as reaching it, for SLREQNDFLEEVEEIVFNLTNNVD [Y5Q]
Output: t

Input: Say whether FLREYNDFLEEVEEIVFNLTNNVD [S1F] shows protein stability index of 2 or more.
Output: t

Input: # bool: protein stability index of NLREYNDFLEEVEEIVFNLTNNVD [S1N] >= 2
Output: t

Input: Evaluate SCREYNDFLEEVEEIVFNLTNNVD [L2C] : protein stability index at minimum 2?
Output: t

Input: Reported protein stability index at or above 2? SLREYNDFLEEVEEILFNLTNNVD [V16L]
Output: f

Input: Form field: protein stability index at least 2? Entry: VLREYNDFLEEVEEIVFNLTNNVD [S1V]
Output: t

Input: Answer whether protein stability index of SLREWNDFLEEVEEIVFNLTNNVD [Y5W] is greater than or equal to 2.
Output: t

Input: Record SLREYKDFLEEVEEIVFNLTNNVD [N6K] ; criterion: protein stability index no lower than 2. Met?
Output: t

Input: Could you verify whether the entry SLRIYNDFLEEVEEIVFNLTNNVD [E4I] shows protein stability index of no less than 2?
Output: f

Input: Confirm if protein stability index reported for the variant SLREYNDFLMEVEEIVFNLTNNVD [E10M] is 2 or above.
Output: f

Input: Does the reported protein stability index for SLREYNDFLFEVEEIVFNLTNNVD [E10F] fall at or above the 2 mark?
Output: t

Input: Does SLREYNDFLEEVEEIVFNLTNNVL [D24L] have a reported protein stability index of at least 2?
Output: f

Input: Threshold query (protein stability index >= 2) on SLREYNDFLIEVEEIVFNLTNNVD [E10I]
Output: f

Input: hey, is protein stability index for this one >= 2? SLREYNDFGEEVEEIVFNLTNNVD [L9G]
Output: t

Input: # bool: protein stability index of SLREYNDFLEEVEVIVFNLTNNVD [E14V] >= 2
Output: f

Input: Decide: is the reported value of protein stability index for SLREYNDFLEEVEWIVFNLTNNVD [E14W] equal to or greater than 2?
Output: f

Input: Quick check, protein stability index >= 2? SLREYNDFLEEVEEIVFNPTNNVD [L19P]
Output: t

Input: Entry SLREYNDFLEFVEEIVFNLTNNVD [E11F] : is its protein stability index no less than 2?
Output: f

Input: Is reported protein stability index greater than or equal to 2 here: SLQEYNDFLEEVEEIVFNLTNNVD [R3Q]
Output: t

Input: Determine whether this variant has protein stability index no lower than 2: SLREYNDFLEEVEEIVFNLKNNVD [T20K]
Output: t

Input: Please indicate if the recorded protein stability index for KLREYNDFLEEVEEIVFNLTNNVD [S1K] meets or exceeds 2.
Output: f

Input: Decide: is the reported value of protein stability index for SLREYNDFLEEVEEIVFNLTNNVI [D24I] equal to or greater than 2?
Output: f

Input: Would you say SLREYNDFLEEVEEIVFHLTNNVD [N18H] shows protein stability index at minimum 2?
Output: f

Input: Reported protein stability index reaches at least 2 for SLREYNDFLEEVSEIVFNLTNNVD [E13S] ?
Output: f

Input: Reported protein stability index reaches at least 2 for SLREYNDFLEEVEEIVFRLTNNVD [N18R] ?
Output: f

Input: Decide: protein stability index of SLREYNDFPEEVEEIVFNLTNNVD [L9P] >= 2?
Output: t

Input: Test whether the variant TLREYNDFLEEVEEIVFNLTNNVD [S1T] records protein stability index of 2 or higher.
Output: f

Input: Is the recorded value of protein stability index equal to or greater than 2 for this variant? SLREYNDFHEEVEEIVFNLTNNVD [L9H]
Output: t
